test system: OVCAR-4 ovarian; assay: NCI tumour cell line growth inhibition, 48 h
measurement-kind: TGI

Please supply the value of reported TGI for the item C=CCc1ccccc1CC1(OCC)OC(=O)c2ccccc21 (stereo unspecified)
> 100 µM

Report TGI, nothing else, for this molecule: Cc1ccc(N2CCC3(CC2)OCCO3)cc1
> 100 µM

Give the reported TGI for this molecule. CC(C)C(Sc1nc(-c2ccccc2)c(-c2ccccc2)[nH]1)C(=O)NN (stereo unspecified)
> 100 µM

# return recorded TGI for input CC1OC(OC2C(OC(=O)[C@@H]3CC(C)(C)C[C@@H]4C5=CC[C@@H]6[C@@]7(C)C[C@H](O)[C@H](OC8OC(CO)C(O)C(O)C8O)[C@@](C)(CO)C7[C@H](O)C[C@@]6(C)[C@]5(C)C[C@@H](O)[C@H]43)OCC(O)C2O)C(O)C(O)C1O (stereo partly specified)
> 15 µM

Look up and report measured TGI for this entry: O=C(Nc1ccc2[nH]c(=S)sc2c1)Nc1ccccc1F
> 100 µM

Using the record for Cc1c(C(=O)CC(=O)C(=O)Nc2ccc(Cl)cc2)[n+](=O)c2ccccc2n1[O-] , state its measured TGI.
> 100 µM
